Read-out: Interleukin-1 alpha (IL1a), IL1A (gene 3552)
ASSAY_NOTES: BSK_KF3CT_IL1a: BioMAP Diversity Plus: KF3CT Assay for Interleukin-1 alpha (IL1a) Biomarker Activity (AID 2283070)
CONDITIONS: primary human keratinocytes with fibroblasts; actives raise or lower the signal
Activity calls are given as the source filed them. Rule for the calls: active = hit-call score of the fitted dose curve at least 0.9, where 1 is the maximum; inactive = score below 0.9.
Outcomes you can answer with include only these: 1 (yes) = active, 0 (no) = inactive

>>> df
                            compound  answer_label
0                     CCCCCCCCCCCCCO       1 (yes)
1                c1cc(-c2ccncc2)ccn1        0 (no)
2      CCOc1ccc2c(c1)C(C)=CC(C)(C)N2        0 (no)
3                 COC(=O)c1ccc(O)cc1        0 (no)
4               C1CCC(SSC2CCCCC2)CC1        0 (no)
5       CCOC(=O)C(C)(C)Oc1ccc(Cl)cc1        0 (no)
6  O=C(OCCCCCOC(=O)c1ccccc1)c1ccccc1        0 (no)
7    Nc1ccc(S(=O)(=O)c2ccc(N)cc2)cc1        0 (no)

Incoming: Fill in: this test's call for "CN[C@H]1CC[C@@H](c2ccc(Cl)c(Cl)c2)c2ccc(S(N)(=O)=O)cc21" is ___
Outgoing: 1 (yes)

Incoming: Please share the test call associated with "CC(=O)OCCOCCOCCOC(C)=O" .
Outgoing: 0 (no)

Incoming: Answer briefly: the call reported for "CC1=C(/C=C/C(C)=C/C=C/C(C)=C/CO)C(C)(C)CCC1" in this assay.
Outgoing: 0 (no)

Incoming: Hi team, can someone confirm the assay call for "CCc1c(C(=O)NN2CCCCC2)nn(-c2ccc(Cl)cc2Cl)c1-c1ccc(Br)cc1" ?
Outgoing: 1 (yes)

Incoming: Please state the recorded outcome for this compound: COCCOC[C@H](CC1(C(=O)NC2CCC(C(=O)O)CC2)CCCC1)C(=O)Oc1ccc2c(c1)CCC2 (stereo partly specified)
Outgoing: 0 (no)

Incoming: Entry "Oc1ccc2c(c1)OC[C@@H](N1CCC(O)(c3ccc(F)cc3)CC1)[C@H]2O" : call = ?
Outgoing: 0 (no)

Incoming: What call does the record list for "Cc1ccccc1Cl" ?
Outgoing: 0 (no)

====

Read-out: Urokinase-type plasminogen activator receptor (uPAR), PLAUR (gene 5329)
ASSAY_NOTES: BSK_4H_uPAR: BioMAP Diversity Plus: 4H Assay for Urokinase-type plasminogen activator receptor (uPAR) Biomarker Activity (AID 2283030)
CONDITIONS: primary human endothelial cells (HUVEC); actives raise or lower the signal
Calls of active or inactive are those of the source. Rule for the calls: active = hit-call score of the fitted dose curve at least 0.9, where 1 is the maximum; inactive = score below 0.9.
Please answer using one outcome listed in active, inactive

These solved cases illustrate the format of a correct answer.
In [3]: df
Out[3]:
                                   compound  answer_label
0  NC(=O)Cn1c(=O)cc(CCN2CCN(c3nccc4sccc34)CC2)c2ccc(F)cc21        active
1                       C=CCc1ccc(O)c(OC)c1      inactive
2                               Cc1ccccc1Cl      inactive
3  O=c1c(O)c(-c2ccc(O)c(O)c2)oc2cc(O)cc(O)c12        active

Incoming: Which outcome was entered for the compound "CCCCCCCCCCCC(=O)OC" in this test?
Outgoing: inactive

Incoming: Answer briefly: the call reported for "CCCCOC(=O)CCCCCCCCC(=O)OCCCC" in this assay.
Outgoing: inactive

Incoming: What outcome does the record of this test show for "CCOc1ccc2c(c1)C(C)=CC(C)(C)N2" ?
Outgoing: inactive

Incoming: Per the assay record, what outcome was assigned to "C[C@]12C=CC(=O)C=C1CC[C@@H]1[C@@H]2C(=O)C[C@@]2(C)[C@H]1CC[C@]2(O)C(=O)CO" ?
Outgoing: inactive

Incoming: Can you look up the reported call for "COc1cc(S(=O)(=O)O)c(C)cc1N=Nc1c(O)ccc2cc(S(=O)(=O)O)ccc12" for me?
Outgoing: inactive

====

Read-out: Monocyte Chemoattractant Protein-1 (MCP1), CCL2 (gene 6347)
ASSAY_NOTES: BSK_4H_MCP1: BioMAP Diversity Plus: 4H Assay for Monocyte Chemoattractant Protein-1 (MCP1) Biomarker Activity (AID 2283018)
CONDITIONS: primary human endothelial cells (HUVEC); actives raise or lower the signal
Calls of active or inactive are those of the source. Rule for the calls: active = hit-call score of the fitted dose curve at least 0.9, where 1 is the maximum; inactive = score below 0.9.
Can you answer with just one of these options? true (1) (active), false (0) (inactive)

# example entries with known answers
>>> df
                                   compound  answer_label
0             CCOc1ccc2c(c1)C(C)=CC(C)(C)N2     false (0)
1       Cc1cccc(Nc2cc(Cl)nc(SCC(=O)O)n2)c1C     false (0)
2        NS(=O)(=O)c1cc2c(cc1Cl)NCNS2(=O)=O     false (0)
3                  Cc1cccc([N+](=O)[O-])c1C     false (0)
4  COc1ccc(S(=O)(=O)N2C(=O)[C@@](c3ccccc3OC)(N3C[C@H](O)C[C@H]3C(=O)N(C)C)c3cc(Cl)ccc32)c(OC)c1     false (0)

Incoming: Outcome logged for "Oc1ccc2c(c1)OC[C@@H](N1CCC(O)(c3ccc(F)cc3)CC1)[C@H]2O" in this assay:
Outgoing: false (0)

Incoming: Any idea what this test logged for CC1(C)CC(N=C=O)CC(C)(CN=C=O)C1 (stereo not drawn) ?
Outgoing: false (0)

Incoming: Answer briefly: the call reported for CC(=O)C(C)=CC1C(C)=CCCC1(C)C (stereo not drawn) in this assay.
Outgoing: false (0)

Incoming: What is the recorded call for this compound in the test? "O=[N+]([O-])C(CO)(CO)CO"
Outgoing: false (0)

Incoming: Kindly provide the recorded test outcome for the following compound: "CCCCCCOCCO"
Outgoing: false (0)

Incoming: Could you please tell me the result logged for "Nc1ccccc1N" in this assay?
Outgoing: false (0)

Incoming: For "Nc1ccc2c(c1)C(=O)c1ccccc1C2=O" , what call appears in the results of this test?
Outgoing: false (0)

Incoming: Outcome logged for "CC(=O)OC/C=C(\C)CCC=C(C)C" in this assay:
Outgoing: false (0)

Incoming: Could you please tell me the result logged for "NCC1(Cc2noc(=O)[nH]2)CCCCC1" in this assay?
Outgoing: false (0)

Incoming: Called result for "C1CCC(SSC2CCCCC2)CC1"
Outgoing: false (0)

Incoming: // outcome(item) with item = "CN[C@H]1CC[C@@H](c2ccc(Cl)c(Cl)c2)c2ccc(S(N)(=O)=O)cc21"
Outgoing: true (1)

Incoming: Called result for "CCOC(=O)C(C)(C)Oc1ccc(Cl)cc1"
Outgoing: false (0)

Incoming: State the result this test recorded for "Cc1ccc(N(C)C)cc1" .
Outgoing: false (0)

Incoming: # lookup: test call for "CCCCCCCCCCCCCO"
Outgoing: true (1)

Incoming: What is the recorded call for this compound in the test? "COCCOCCOC"
Outgoing: false (0)

Incoming: // outcome(item) with item = "COc1cc(S(=O)(=O)O)c(C)cc1N=Nc1c(O)ccc2cc(S(=O)(=O)O)ccc12"
Outgoing: false (0)

Incoming: GET /call?item= "CNC(=O)[C@H]1O[C@@H](n2cnc3c(NCc4cc(Cl)ccc4OCc4cc(C)no4)ncnc32)[C@H](O)[C@@H]1N" returns the recorded outcome of this test.
Outgoing: false (0)

====

Read-out: Bcl-2 (BAX) gene, BAX (gene 581)
ASSAY_NOTES: LTEA_HepaRG_BAX: Life Technologies and Expression Analysis (LTEA) Assay for Bcl-2 (BAX) gene using HepaRG (AID 2283470)
CONDITIONS: mRNA level, 48 h; actives raise or lower the signal
Calls of active or inactive are those of the source. How the source made its calls: active means hit-call score of the fitted dose curve at least 0.9, where 1 is the maximum; inactive means score below 0.9.
Output constraint: value belongs to 1 (active), -1 (inactive)

>>> df
                               input_smiles  answer_label
0                               Cc1ccccc1Cl            -1
1                  Cc1cccc([N+](=O)[O-])c1C            -1
2                     CC(=O)Oc1ccccc1C(=O)O            -1
3  NC(=O)Cn1c(=O)cc(CCN2CCN(c3nccc4sccc34)CC2)c2ccc(F)cc21             1
4                   Cc1cc(=O)[nH]c(=S)[nH]1            -1
5              C=CCOC(=O)c1ccccc1C(=O)OCC=C            -1

Proceed to the following item.
Incoming: What is the recorded call for this compound in the test? "CCCCCCCCCCCC(=O)OC"
Outgoing: -1
